Test system: Mus musculus
assay.protocol: Analgesic activity in sc dosed ddY mouse assessed as inhibition of acetic acid-induced abdominal stretching pretreated for 30 mins followed by acetic acid challenge measured for 5 to 20 mins
Type: functional
condition.set: Abdomen
reported.metric: ED50

Some entries whose results are on file:
- input.smiles: "CCCCC1C(=O)N(c2ccccc2)N(c2ccccc2)C1=O"
  test.value: "> 100 mg/kg"
- input.smiles: "CCOc1ccnn(C)c1=O"
  test.value: "> 100 mg/kg"

# lookup: ED50 of c1ccnnc1
> 100 mg/kg

* * *

Tested on: Rattus norvegicus
assay.protocol: Antiinflammatory activity in Wistar rat assessed as inhibition of carrageenan-induced paw edema at 25 mg/kg, po pretreated for 30 mins followed by carrageenan challenge measured after 3 hrs relative to control
Assay type: functional
Field: inhibition in vivo at 25 mg/kg. Provide a value for each of the compounds that follow.
Numbers only, in %.

Some entries whose results are on file:
- input.smiles: "CCCOc1c(N2CCOCC2)cnn(C)c1=O"
  tgt: "Rattus norvegicus"
  reported.metric: "inhibition in vivo at 25 mg/kg"
  units.symbol: "%"
  test.value: 4.5
- input.smiles: "COc1c(N2CCOCC2)cnn(C)c1=O"
  tgt: "Rattus norvegicus"
  reported.metric: "inhibition in vivo at 25 mg/kg"
  units.symbol: "%"
  test.value: 11
- input.smiles: "CCOc1c(N2CCOCC2)cnn(CC)c1=O"
  tgt: "Rattus norvegicus"
  reported.metric: "inhibition in vivo at 25 mg/kg"
  units.symbol: "%"
  test.value: 8.3

Read the next record carefully.
Provide the documented inhibition in vivo at 25 mg/kg with Rattus norvegicus as the system for CCOc1c(N2CCOCC2)cnn(C)c1=O
20.2
